# Tested on: ddY-strain male mice
# test-method-notes: Effect of prolongation of sleeping time (hexobarbital)
# Format: in vivo
# condition-parameters: Mus musculus, ip, 100 mg/kg intraperitoneal
Field: change in vivo at 100 mg/kg. Provide a value for each of the compounds that follow.
Answers are plain numbers, in %.

Solved entries:
compound: COc1ccc(C2(c3ccc(OC)c(OC)c3)NC(=O)NC2=O)cc1OC
unit-descriptor: %
recorded-result: 10
//
compound: COc1ccc(C2(c3ccc(OC)c(CO)c3)NC(=O)NC2=O)cc1CO
unit-descriptor: %
recorded-result: 25.1
//
compound: O=C1NC(=O)C(c2cccc(O)c2)(c2cccc(O)c2)N1 [Compound 8, 5,5-Bis(3-hydroxyphenyl)hydantoin]
unit-descriptor: %
recorded-result: 16.9

Please look at the items below and tell me change in vivo at 100 mg/kg for each one, in order.
1. COc1cc(C2(c3cc(OC)c(OC)c(OC)c3)NC(=O)NC2=O)cc(OC)c1OC
2. O=C1NC(=O)C(c2ccccc2)(c2ccccc2O)N1 (stereo not shown) [Compound 6, 5-(2-Hydroxyphenyl)-5-phenylhydantoin]
3. Cc1cc(C2(c3ccc(O)cc3)NC(=O)NC2=O)ccc1O (stereo not shown)
4. O=C1NC(=O)C(c2ccc(O)cc2)(c2cccs2)N1 (stereo not shown)

Data returned:
[19.9, 30.6, 26.6, 36.9]
